Target: UniProtKB Q99028
Sequence (Q99028 whole entry): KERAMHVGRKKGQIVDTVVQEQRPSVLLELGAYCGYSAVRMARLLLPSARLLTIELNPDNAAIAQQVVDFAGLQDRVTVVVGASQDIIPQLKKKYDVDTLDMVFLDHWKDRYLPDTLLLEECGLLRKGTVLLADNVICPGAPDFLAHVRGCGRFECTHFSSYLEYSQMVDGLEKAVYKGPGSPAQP
Test: In vitro inhibition of Catechol-O-methyltransferase (COMT) from isolated partially purified pig liver enzyme
pIC50: −log10 of the molar value.
measurementType: pIC50

[[record]]
molecule = "O=Cc1c([N+](=O)[O-])ccc(O)c1O"
numericvalue = 5.00

[[record]]
molecule = "O=Cc1cc(O)c(O)c([N+](=O)[O-])c1 [3,4-DIHYDROXY-5-NITROBENZALDEHYDE]"
numericvalue = 5.70


a = COc1c(O)cc(C=O)cc1[N+](=O)[O-]
b = O=Cc1cc([N+](=O)[O-])cc(O)c1O
c = O=Cc1cc(O)c(O)cc1[N+](=O)[O-]
IN: Parameters: sort_field (pIC50), sort_dir (desc). // list labels; follow requested order
OUT: b, c, a

---

molecular target: Catechol O-methyltransferase (Sus scrofa); experiment: Compound was evaluated for reversible inhibition of Catechol O-methyltransferase with saturating AdoMet and variable catechol as substrate (Non-competitive inhibition)
measurementType: Ki (µM)
Return type: number; implicit unit µM.

IN: Find the recorded Ki belonging to COc1c(O)cc(C=O)cc1[N+](=O)[O-] and report it.
OUT: 17.2

---

The following are reported KII results, target or system Catechol O-methyltransferase (Sus scrofa) (UniProt Q99028).
measurementType: KII (nM)

[[record]]
molecule = "O=Cc1cc(O)c(O)c([N+](=O)[O-])c1 [3,4-DIHYDROXY-5-NITROBENZALDEHYDE]"
measurementtype = "KII"
numericvalue = 138


A = O=Cc1ccc([N+](=O)[O-])c(O)c1O
B = O=Cc1c([N+](=O)[O-])ccc(O)c1O
IN: Choose between A and B : whose measured KII value is numerically larger? In your reply, give the label of the chosen option.
OUT: B
(B: 909 nM, A: 145 nM)

A = O=Cc1cc(O)c(O)cc1[N+](=O)[O-]
B = O=Cc1cc([N+](=O)[O-])cc(O)c1O
IN: Choose between A and B : whose measured KII value is numerically larger? In your reply, give the label of the chosen option.
OUT: A

---

Target chain: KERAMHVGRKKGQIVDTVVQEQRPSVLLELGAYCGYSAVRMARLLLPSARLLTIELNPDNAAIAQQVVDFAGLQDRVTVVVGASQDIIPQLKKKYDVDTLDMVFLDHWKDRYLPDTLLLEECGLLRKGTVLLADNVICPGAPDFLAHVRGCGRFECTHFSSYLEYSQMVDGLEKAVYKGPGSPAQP
measurementType: KIs (µM)

Record excerpt, results attached:
[[record]]
compound = "O=Cc1cc([N+](=O)[O-])cc(O)c1O"
displayunit = "µM"
numericvalue = 1.2

[[record]]
compound = "O=Cc1ccc(O)c(O)c1[N+](=O)[O-]"
displayunit = "µM"
numericvalue = 0.497

[[record]]
compound = "O=Cc1ccc([N+](=O)[O-])c(O)c1O"
displayunit = "µM"
numericvalue = 0.478

[[record]]
compound = "O=Cc1cc(O)c(O)cc1[N+](=O)[O-]"
displayunit = "µM"
numericvalue = 2.69


A = O=Cc1cc(O)c(O)c([N+](=O)[O-])c1 [3,4-DIHYDROXY-5-NITROBENZALDEHYDE]
B = O=Cc1c([N+](=O)[O-])ccc(O)c1O
IN: Choose between A and B : whose measured KIs value is numerically larger? In your reply, give the label of the chosen option.
OUT: B
(B: 4.77 µM, A: 0.816 µM)

Where do these numbers come from? They come from ChEMBL document CHEMBL1126105.
